Assay: chemical genetic growth profiling, strain panel (AID 1159580);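 further: tested at 20 µM; growth read once vehicle control cultures reached saturation at 30 °C; lower values mean less growth of the strain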
Conditions: S. cerevisiae deletion strains, growth OD, locus YMR307W, strain GAS1, hits give low values
Out of some 5,500 compounds screened, about 2,000 (36%) were called active. Roughly 18% stayed inconclusive and do not appear here. The list shows a part of the results.
Binary label based on normalized growth with cut-off 1: below gives fulfilled, not below gives not fulfilled.

Request: Determine if Cn1[nH]c(=O)cc1C(=O)NN shows normalized growth strictly lower than 1.
Result: fulfilled

Request: Determine if COc1ccc(-c2oc3cc(O[C@H]4O[C@H](CO)[C@@H](O)[C@H](O)[C@H]4O)c(OC)c(O)c3c(=O)c2OC)cc1O shows normalized growth strictly lower than 1.
Result: fulfilled

Request: Determine if COc1ccc2ccc(=O)oc2c1 shows normalized growth strictly lower than 1.
Result: not fulfilled

Request: Determine if Cc1cc(OC(=O)c2c(C)cc(OC(=O)c3c(C)cc(O)cc3O)cc2O)cc(O)c1C(=O)O shows normalized growth strictly lower than 1.
Result: fulfilled

Request: Determine if CNCC(O)c1ccc(O)cc1 (centres undefined) shows normalized growth strictly lower than 1.
Result: not fulfilled

Request: Determine if CC1O[C@@H](Oc2c(-c3ccc(O)c(O)c3)oc3cc(O)cc(O)c3c2=O)[C@H](O)[C@H](O)[C@H]1O (some centres undefined) shows normalized growth strictly lower than 1.
Result: not fulfilled

Request: Determine if C=C[C@H]1CN2CC[C@H]1C[C@@H]2[C@@H](OC(=O)OCC)c1ccnc2ccc(OC)cc12 shows normalized growth strictly lower than 1.
Result: fulfilled

----------
Experiment: chemical genetic growth profiling, strain panel (AID 1159580);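 further: tested at 20 µM; growth read once vehicle control cultures reached saturation at 30 °C; lower values mean less growth of the strain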
Settings: S. cerevisiae deletion strains, growth OD, locus YLR039C, strain RIC1, hits give low values
Out of some 5,500 compounds screened, about 2,000 (36%) were called active. About 18% were inconclusive and are not listed. Some of the results follow.
Binary label based on normalized growth with cut-off 1: below gives Criterion met, not below gives Criterion not met.

Example entries begin here.
CC(=O)Oc1ccc2c(c1OC(C)=O)OCC1(O)Cc3c(cc(OC(C)=O)c(OC(C)=O)c3OC(C)=O)C21 (stereo not drawn)
Criterion not met
COC(=O)[C@@]1(C)CCC[C@]2(C)c3ccc(O)c(C(C)C)c3CCC12 (stereo partly drawn)
Criterion met
CCOC(=O)C1C(c2cccnc2)C(C(=O)OCC)C(O)(C(F)(F)F)NC1(O)C(F)(F)F (stereo not drawn)
Criterion not met

Request: Determine if O=C(O)C1=C[C@@H](O)[C@@H](O)[C@H](O)C1 shows normalized growth strictly lower than 1.
Result: Criterion not met

----------
Assay: chemical genetic growth profiling, strain panel (AID 1159580);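 further: tested at 20 µM; growth read once vehicle control cultures reached saturation at 30 °C; lower values mean less growth of the strain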
Details: S. cerevisiae deletion strains, growth OD, locus YJL092W, strain hpr5
In all, about 5,500 compounds went through this assay and about 2,000 (36%) were called active. Not shown: some 18% with an inconclusive outcome. Cut-off read from the data, not from the text of the source: active = normalized growth mostly below about 0.91 (no sharp cut-off); inconclusive = no clear call, values can overlap the other calls; inactive = mostly above about 0.92. This is one part of the list. Where a SMILES comes first, the peptide text is derived from it.
API: response.call in active, inactive

Example entries begin here.
CO[C@@]1(NC(=O)C(C(=O)O)c2ccc(O)cc2)C(=O)N2C(C(=O)O)=C(CSc3nnnn3C)CO[C@@H]21 (stereo not given in full)
inactive
NS(=O)(=O)c1cc(C2(O)NC(=O)c3ccccc32)ccc1Cl (stereo not given)
inactive
CCOC(=O)c1c(C)cc(O)cc1O
inactive
COC(=O)[C@H](Cc1ccccc1)NC(=O)[C@@H](N)CC(=O)O (H-Asp-Phe-OMe)
inactive
COc1c2ccoc2cc2oc(=O)ccc12
inactive
C=CC1C2=CCOC(=O)C2=COC1OC1OC(CO)C(O)C(O)C1O (stereo not given)
inactive

Request: Tell me the assay call for O=C(O)C1=C[C@@H](O)[C@@H](O)[C@H](O)C1 please.
Result: inactive

Request: Tell me the assay call for CC1CC[C@@]2(OC1)O[C@H]1CC3C4CC[C@@H]5C[C@@H](O)CC[C@]5(C)C4CC[C@]3(C)[C@H]1[C@@H]2C (stereo not given in full) please.
Result: inactive

Request: Tell me the assay call for CC1CCC2(OC1)OC1CC3C4CC[C@H]5C[C@@H](O)CC[C@]5(C)C4CC(=O)[C@]3(C)C1C2C (stereo not given in full) please.
Result: inactive

Request: Tell me the assay call for COc1ccc2c(c1)CCC1C2CC[C@@]2(C)C1CC[C@@H]2O (stereo not given in full) please.
Result: inactive

Request: Tell me the assay call for C[C@@H]1CC[C@@]2(OC1)OC1CC3C4CC=C5C[C@@H](O)CC[C@]5(C)C4CC[C@]3(C)C1[C@@H]2C (stereo not given in full) please.
Result: inactive

Request: Tell me the assay call for C[C@@H]([C@H](O)c1ccccc1)N(C)C please.
Result: inactive

Source of measurements: PubChem BioAssay AID1159580
